- tested_on: ALK5 (Homo sapiens (Human), UniProt P36897)
- Sequence (P36897 34-503): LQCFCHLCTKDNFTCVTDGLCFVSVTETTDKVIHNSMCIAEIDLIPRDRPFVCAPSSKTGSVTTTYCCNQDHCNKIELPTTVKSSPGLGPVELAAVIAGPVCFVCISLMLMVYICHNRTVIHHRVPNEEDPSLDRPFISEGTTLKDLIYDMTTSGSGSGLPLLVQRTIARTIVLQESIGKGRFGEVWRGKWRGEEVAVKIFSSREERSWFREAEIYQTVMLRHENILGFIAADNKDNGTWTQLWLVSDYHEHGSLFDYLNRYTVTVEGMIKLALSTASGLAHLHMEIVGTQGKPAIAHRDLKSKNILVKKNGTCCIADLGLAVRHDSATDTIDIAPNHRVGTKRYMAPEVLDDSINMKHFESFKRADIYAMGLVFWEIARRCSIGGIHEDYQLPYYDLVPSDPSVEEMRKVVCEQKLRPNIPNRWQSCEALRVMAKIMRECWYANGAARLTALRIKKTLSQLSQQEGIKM
- assay_details: Evaluation experiment of ALK5 enzyme activity inhibition IC50 (ADP-Glo kinase assay)
- Format: biochemical
- condition_set: ALK5 25 nM, peptide TGFbR1 0.1 mg/mL, ATP 7 μM, 30° C. 1 hour, ADP-Glo luminescence
Reported IC50 is given for each of the following compounds.
Please state the number and follow it with the unit.

Would you please look over these solved cases?
compound: Cc1cccc(/C=C(/C(=O)OC(C)(C)C)c2ccc3ncc(C(N)=O)n3c2)n1 [Compound 17a]
IC50: 0.0066 µM
//
compound: Cc1cccc(C2=C(c3ccc4ncc(C(N)=O)n4c3)CCCC2)n1
IC50: 0.048 µM

Tell me its IC50 given Cc1cccc(/C=C(/C(=O)O)c2ccc3ncc(C(N)=O)n3c2)n1 as the entry.
0.616 µM

Tell me measured IC50 for Cc1cccc(/C=C\c2ccc3ncc(C(N)=O)nc3c2)n1 please.
0.078 µM

Read off the recorded IC50 for Cc1cccc(/C=C\c2ccn3ncc(C(N)=O)c3c2)n1
0.0051 µM

Please give measured IC50 of the following entry: Cc1cccc(/C=C\c2ccc3ncc(C(=O)NC4CC4)n3c2)n1
0.017 µM

Give reported IC50 value for Cc1cccc(/C=C(/C(=O)N(C)C)c2ccc3ncc(C(N)=O)n3c2)n1
0.034 µM

---

- tested_on: ALK5 (Homo sapiens (Human), UniProt P36897)
- assay_details: Evaluation experiment of ALK5 enzyme activity inhibition IC50 (ADP-Glo kinase assay)
- Type: biochemical
experimental_readout: IC50 (nM)
Please respond with the number in nM and leave the unit unwritten.

Fill in IC50 for record NC(=O)c1cnc2ccc(/C=C\c3cccc(C(F)(F)F)n3)cn12
10

The measurements presented in this section are drawn from patent US11447490B2.
